Species: Rattus norvegicus
PROCEDURE SUMMARY: Open TG-GATES - Regimen: Single
Format: toxicity, organism-based, Sprague-Dawley
Set-up: regimen Single, gender Male, age 6 weeks
EXPERIMENTAL CONDITIONS: in vivo, po, 0 mg/kg, 9 h, tissue Plasma, route gavage, dose level Control
Parameter: K. Scope: all listed entries.
Note: unit meq/L is implicit; provide only the numeric part.

# MOLECULE, K [meq/L]
measured = [
    ("CC(CN1c2ccccc2Sc2ccccc21)N(C)C (stereo not given)", 4.5),
    ("CC(=O)Nc1nnc(S(N)(=O)=O)s1 [ACETAZOLAMIDE]", 4.1),
    ("Cc1cccc(Nc2ccccc2C(=O)O)c1C", 3.8),
    ("CN(C)[C@@H]1C(O)=C(C(N)=O)C(=O)[C@@]2(O)C(O)=C3C(=O)c4c(O)cccc4[C@@](C)(O)[C@H]3C[C@@H]12", 5.3),
    ("CCOC(=O)[C@H](CCc1ccccc1)N[C@@H](C)C(=O)N1CCC[C@H]1C(=O)O", 4.8),
]

--- query ---
**Query** Which K value is on record for C1CCC(C(CC2CCCCN2)C2CCCCC2)CC1 (stereo not given) ?
**Result** 3.9
